- assay: chemical genetic growth profiling, strain panel (AID 1159580);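 note: tested at 20 µM; growth read once vehicle control cultures reached saturation at 30 °C; 1 = growth at the plate median or of vehicle wells; lower values mean less growth of the strain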
- condition.summary: S. cerevisiae deletion strains, growth OD, locus YER111C, strain swi4
Screen size: about 5,500 compounds; about 2,000 (36%) were called active. Roughly 18% stayed inconclusive and do not appear here. Cut-off read from the data, not from the text of the source: active = normalized growth mostly below about 0.91 (no sharp cut-off); inconclusive = no clear call, values can overlap the other calls; inactive = mostly above about 0.92. This is one part of the list.
// allowed return values: class 1 = active, class 0 = inactive

Some solved cases for reference:
CCCN(CCC)c1c([N+](=O)[O-])cc(C(F)(F)F)cc1[N+](=O)[O-] = class 0
O=c1c(O)c(-c2ccccc2)oc2ccc3occc3c12 = class 1
O=C1C=C(O)c2ccccc2C1=O = class 0

Tell me the recorded outcome of this test for COc1ccc([C@@H](C)C(=O)c2ccc(O)cc2O)cc1 .
class 0

Tell me the recorded outcome of this test for CC(=CC1CCC(C)C2C1=C(C)CC2O)C(=O)O (configuration not stated) .
class 0

Tell me the recorded outcome of this test for COc1cc(Cc2cnc(N)nc2N)cc(OC)c1OC .
class 0

Tell me the recorded outcome of this test for CCCCCCCCCCCCCCCC(=O)OC[C@H](NC(=O)C(Cl)Cl)[C@H](O)c1ccc([N+](=O)[O-])cc1 .
class 0

Tell me the recorded outcome of this test for O=C1c2ccccc2C(=O)c2ccccc21 .
class 0

Tell me the recorded outcome of this test for O=C(O)c1cccnc1C(=O)O .
class 0

Tell me the recorded outcome of this test for O=C(Nc1ccc([N+](=O)[O-])cc1Cl)c1cc(Cl)ccc1O .
class 1

Tell me the recorded outcome of this test for CCCCN(CC)c1c([N+](=O)[O-])cc(C(F)(F)F)cc1[N+](=O)[O-] .
class 0

Tell me the recorded outcome of this test for CC(C)C1CCC(C(=O)N[C@@H](Cc2ccccc2)C(=O)O)CC1 (some centres not stated) .
class 0
